These entries and their values trace back to patent US7683168B2.

What Ki was measured for each of the following?
target: human mu opioid receptor (Homo sapiens); construct: purchased Perkin Elmer, Boston, Mass; 6110535; host or cells: CHO cells; assay: radioligand binding, human mu opioid receptor, CHO cell membranes; settings: species not given, read-out: μ
Sequence (P35372 whole entry): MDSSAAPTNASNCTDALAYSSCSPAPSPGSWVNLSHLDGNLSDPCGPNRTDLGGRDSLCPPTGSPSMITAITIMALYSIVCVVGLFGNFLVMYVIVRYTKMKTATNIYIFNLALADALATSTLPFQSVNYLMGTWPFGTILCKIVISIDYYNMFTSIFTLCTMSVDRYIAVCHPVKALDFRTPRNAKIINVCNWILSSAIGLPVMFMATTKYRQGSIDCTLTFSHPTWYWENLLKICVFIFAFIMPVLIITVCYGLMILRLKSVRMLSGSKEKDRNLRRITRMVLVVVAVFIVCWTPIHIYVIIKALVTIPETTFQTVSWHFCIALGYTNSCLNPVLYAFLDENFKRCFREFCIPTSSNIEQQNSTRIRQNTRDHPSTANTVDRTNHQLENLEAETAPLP
One number for each entry, in nM.

Examples from the recorded data:
Substance smiles: CCOC(=O)CCCN1CCN(C(=O)c2cccc([C@H](c3cccc(O)c3)N3C[C@@H](C)N(CC4CC4)C[C@@H]3C)c2)CC1
Readout units: nM
Ki: 4.4
//
Substance smiles: C=CCN1C[C@H](C)N([C@@H](c2cccc(O)c2)c2cccc(C(=O)N3CCN(CCCCC(=O)OCC)CC3)c2)C[C@H]1C
Readout units: nM
Ki: 8.9

Find the recorded Ki belonging to `C=CCN1C[C@H](C)N([C@@H](c2cccc(O)c2)c2cccc(C(=O)N3CCC(O)CC3)c2)C[C@H]1C` and report it. 1.1
